Origin of measurements: PubChem BioAssay (EPA / NIEHS)

- measured_on: Bile acid receptor (Homo sapiens)
- experimental_protocol: OT_FXR_FXRSRC1_0480: Odyssey Thera (OT) 8-hour HEK293T Protein-Complementation Assay for Farnesoid X receptor/SRC-1 Co-activator (AID 2283383)
- Procedure: OT_FXR_FXRSRC1_0480 is a cell-based assay that uses HEK293T, a human kidney cell line, with measurements taken at 8 hours after chemical dosing in a 384-well plate.OT_FXR_FXRSRC1_0480 is one of one assay component(s) measured or calculated from the OT_FXR_FXRSRC1_0480 assay. […] This assay endpoint, OT_FXR_FXRSRC1_0480, was analyzed in the positive analysis fitting direction relative to DMSO as the negative control and baseline of activity. […]
Records with an inconclusive call do not appear. The source made the active and inactive calls. Rule for the calls: active = hit-call score of the fitted dose curve at least 0.9, where 1 is the maximum; inconclusive = response in the unintended direction; inactive = score below 0.9.
Field 'call' accepts true (1) = active, false (0) = inactive

Inquiry: Recorded test outcome, item "CCN(Cc1cccc(S(=O)(=O)O)c1)c1ccc(C(=C2C=CC(=[N+](CC)Cc3cccc(S(=O)(=O)O)c3)C=C2)c2ccccc2S(=O)(=O)[O-])cc1"
Reply text: false (0)

Inquiry: Short answer needed: outcome of this test for "O=C(O)Cn1c(=O)n(Cc2ccc(Br)cc2F)c(=O)c2ccc(Cl)cc21" ?
Reply text: false (0)

Inquiry: Per the records of this test, what outcome belongs to "O=CCCCC=O" ?
Reply text: true (1)

Inquiry: Assay outcome for "Cc1ccc(C(C)C)cc1" : what was it?
Reply text: false (0)

====

- Read-out: TIMP metallopeptidase inhibitor 2 (TIMP2), TIMP2 (gene 7077)
- experimental_protocol: BSK_KF3CT_TIMP2: BioMAP Diversity Plus: KF3CT Assay for TIMP metallopeptidase inhibitor 2 (TIMP2) Biomarker Activity (AID 2283071)
- condition_notes: primary human keratinocytes with fibroblasts; actives raise or lower the signal
Active and inactive are the calls of the source. How the source made its calls: active means hit-call score of the fitted dose curve at least 0.9, where 1 is the maximum; inactive means score below 0.9.
readout: AC50

Completed entries (count: 4):
>>> measured("CC(C)(O)c1ccc(CNC(=O)c2cccnc2Oc2ccc3nonc3c2)cc1")
"inactive"
>>> measured("Oc1ccc2ccccc2c1")
"inactive"
>>> measured("c1ccc(C[n+]2cccc3ccccc32)cc1")
"inactive"
>>> measured("CCCCCc1ccc(N)cc1")
"20.8 µM (active)"

// each compound listed below needs its AC50
1. OCCO
2. Clc1ccccc1C(c1ccccc1)(c1ccccc1)n1ccnc1
3. Cc1oc2c(NC(=O)c3c(Cl)cccc3Cl)cccc2c1C(C)(C)O
4. CC/C(=C(/CC)c1ccc(O)cc1)c1ccc(O)cc1
5. COc1ccc2cc(S(=O)(=O)N[C@H](CC(=O)N[C@H](Cc3ccc(CN4[C@H](C)CCC[C@@H]4C)cc3)C(=O)N(C)C(C)C)c3ccc4c(c3)OCO4)ccc2c1

Reply text:
["inactive", "10 µM (active)", "5.2 µM (active)", "29.1 µM (active)", "27.6 µM (active)"]

====

- Read-out: Tissue Factor, F3 (gene 2152)
- experimental_protocol: BSK_CASM3C_TissueFactor: BioMAP Diversity Plus: CASM3C Assay for Tissue Factor Biomarker Activity (AID 2283052);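 note: cell surface tissue factor protein level read by ELISA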
- condition_notes: primary human coronary artery smooth muscle cells; actives raise or lower the signal
Active and inactive are the calls of the source. How the source made its calls: active means hit-call score of the fitted dose curve at least 0.9, where 1 is the maximum; inactive means score below 0.9.
Lab note: assign the record to one of active, inactive

>>> class("CCCCCCCC[Si](OCC)(OCC)OCC")
"inactive"
>>> class("CCOC(=O)O[C@H](C)OC(=O)c1ccc2c(c1)cc(C(=O)NC1CCN(C(C)C)CC1)n2Cc1cc(-c2ccc(Cl)s2)on1")
"active"
>>> class("C[C@]12CC[C@@H]3c4ccc(O)cc4CC[C@H]3[C@@H]1CC[C@H]2O")
"inactive"

Inquiry: Status in this test for "Cc1ccc2oc(CN(Cc3ccccc3)C(=O)Nc3c(F)cc(F)cc3F)c(-c3ccc(Cl)cc3)c2c1" ?
Reply text: inactive

Inquiry: Please indicate how the test categorized "CCCCCCCCOC(=O)c1cc(O)c(O)c(O)c1" .
Reply text: inactive
